biological target: HLA-B1301 (Homo sapiens, UniProt P01889, A65T/A93T/A95T/D138N/D201E/D98Y/E176V/E204Q/E69M/E70A/G107R/K202T/L105A/L119I/N104T/N87E/Q94N/R106L/R155S/R169L/R180L/S101N/S121R/S35A/S48T/T118I/V127L/V36M/Y140L/Y91S); assay: Competitive peptide binding assay, CIR-B1301; details: HMy2.CIR-B1301 cells, reference Cy5-[…], class from inhibition at 5 and 15 μM, flow cytometry MFI; read-out: Binding affinity with HLA-B1301
pIC50: −log10 of the molar value. Peptide text beside a SMILES is read from it.
In this section we review reported pIC50 values for a set of compounds.

CC[C@H](C)[C@H](NC(=O)[C@@H](NC(=O)[C@H](CC(C)C)NC(=O)[C@H](CC(N)=O)NC(=O)[C@H](Cc1c[nH]c2ccccc12)NC(=O)[C@H](CCC(N)=O)NC(=O)[C@H](CCC(=O)O)NC(=O)[C@@H](N)CC(C)C)C(C)C)C(=O)NCC(=O)O [Epitope Y215] (H-LEQWNLVIG-OH; N-terminus and C-terminus assumed) :: 4.82 to 5.30
CC[C@H](C)[C@H](NC(=O)[C@H](CC(N)=O)NC(=O)[C@H](CCCCN)NC(=O)[C@H](Cc1ccccc1)NC(=O)[C@@H](NC(=O)[C@@H](N)Cc1ccccc1)C(C)C)C(=O)N[C@@H](CC(=O)O)C(=O)NCC(=O)N[C@@H](Cc1ccc(O)cc1)C(=O)O [Epitope Y172] (H-FVFKNIDGY-OH; N-terminus and C-terminus assumed) :: < 4.82

Shifting focus to the compound that follows.
Which value of pIC50 has been reported for CSCC[C@H](NC(=O)[C@H](CO)NC(=O)[C@H](CCC(N)=O)NC(=O)[C@H](CCC(N)=O)NC(=O)[C@H](CC(C)C)NC(=O)[C@H](CCC(N)=O)NC(=O)[C@H](CCCCN)NC(=O)[C@H](CO)NC(=O)[C@@H](N)Cc1ccccc1)C(=O)O [Epitope Y135] (H-FSKQLQQSM-OH; N-terminus and C-terminus assumed) in the records?
< 4.82

---

In this section we review reported pIC50 values for a set of molecules.
biological target: HLA-B1302 (Homo sapiens, UniProt P01889, A65T/A93T/A95T/D138N/D201E/D98Y/E176V/E204Q/E69M/E70A/G107R/K202T/L105A/L119W/N104T/N87E/Q94N/R106L/R155S/R169L/R180L/S101N/S121T/S35A/S48T/V127L/V36M/Y140L/Y91S); test: Competitive peptide binding assay, CIR-B1302; conditions: HMy2.CIR-B1302 cells, reference Cy5-MMWYWGPSL, class from inhibition at 5 and 15 μM, flow cytometry MFI; read-out: Binding affinity with HLA-B1302
pIC50: −log10 of the molar value. Peptide text beside a SMILES is read from it.

CC(C)[C@H](NC(=O)CNC(=O)[C@H](Cc1c[nH]cn1)NC(=O)[C@@H]1CCCN1C(=O)[C@H](C)NC(=O)[C@H](CO)NC(=O)[C@H](CCC(N)=O)NC(=O)[C@@H]1CCCN1C(=O)[C@@H](N)Cc1ccccc1)C(=O)O [Epitope Y281] (H-FPQSAPHGV-OH; N-terminus and C-terminus assumed) :: < 4.82

Shifting focus to the molecule that follows.
Which value of pIC50 has been reported for CC(C)C[C@H](NC(=O)[C@H](Cc1c[nH]cn1)NC(=O)[C@H](Cc1ccccc1)NC(=O)[C@@H](NC(=O)[C@H](CC(=O)O)NC(=O)[C@H](C)NC(=O)[C@H](Cc1ccc(O)cc1)NC(=O)[C@H](CCC(=O)O)NC(=O)[C@@H](N)CCC(N)=O)C(C)C)C(=O)O [Epitope Y71] (H-QEYADVFHL-OH; N-terminus and C-terminus assumed) in the records?
< 4.82

---

Biological target: HLA-C0102 (Homo sapiens, UniProt P10321, A176E/A330V/A35S/A97T/C350S/D114A/D33F/L171W/L180R/L218V/M285V/M309V/M331V/P208H/Q277E/Q291P/R121W/R243W/R30K/S123C/S140Y/S297R/T329A/T363A/V272M/V319A)
Test: Competitive peptide binding assay, CIR-C0102
Settings: read-out: Inhibition % of Cy5-reference peptide binding
Description: Then, competitive peptide binding assays were performed.
Peptide text beside a SMILES is read from it.
readout: inhibition at 15 µM (%)
# number only, unit % dropped from output

Examples from the recorded data:
CC(C)C[C@H](NC(=O)[C@H](C)NC(=O)[C@@H](NC(=O)[C@H](Cc1ccccc1)NC(=O)[C@H](Cc1c[nH]c2ccccc12)NC(=O)[C@H](CO)NC(=O)[C@H](C)NC(=O)[C@@H](NC(=O)[C@@H](N)CC(N)=O)[C@@H](C)O)[C@@H](C)O)C(=O)O [Epitope M56, NTASWFTAL] (H-NTASWFTAL-OH; N-terminus and C-terminus assumed) :: 46.5
CC(C)[C@H](NC(=O)[C@@H](NC(=O)[C@H](Cc1ccccc1)NC(=O)[C@@H]1CCCN1C(=O)[C@@H](NC(=O)CNC(=O)[C@H](CC(=O)O)NC(=O)[C@@H](NC(=O)[C@@H](N)Cc1ccccc1)C(C)C)C(C)C)C(C)C)C(=O)O [Epitope M96] (H-FVDGVPFVV-OH; N-terminus and C-terminus assumed) :: 20.7
C[C@H](NC(=O)[C@H](CO)NC(=O)[C@H](C)NC(=O)[C@H](CO)NC(=O)[C@@H]1CCCN1C(=O)[C@H](C)NC(=O)[C@@H](N)Cc1ccccc1)C(=O)N[C@@H](Cc1ccccc1)C(=O)N[C@@H](Cc1ccccc1)C(=O)O [Epitope M16] (H-FAPSASAFF-OH; N-terminus and C-terminus assumed) :: 81.4

Shifting focus to the compound that follows.
Which value of inhibition at 15 µM has been reported for CC[C@H](C)[C@H](NC(=O)[C@H](Cc1ccc(O)cc1)NC(=O)[C@H](CC(C)C)NC(=O)[C@H](Cc1ccccc1)NC(=O)[C@H](CCCNC(=N)N)NC(=O)[C@H](CC(N)=O)NC(=O)[C@H](CCCNC(=N)N)NC(=O)[C@H](CC(N)=O)NC(=O)[C@H](C)NC(=O)[C@@H](N)Cc1ccc(O)cc1)C(=O)O [Epitope M73] (H-YANRNRFLYI-OH; N-terminus and C-terminus assumed) in the records?
47.8

---

Target: HLA-C0304 (Homo sapiens, UniProt P10321, A176E/A330V/A97T/C25G/C350S/D114A/D33Y/E197K/L119I/L127V/L171W/L218V/M285V/M309V/M331V/P208H/Q277E/Q291P/R243W/R45H/S123Y/S140Y/S297R/S48A/T118I/T187L/T329A/T363A/V319A)
Experiment: Competitive peptide binding assay, CIR-C0304
Settings: HMy2.CIR-C0304 cells, reference Cy5-[…], class from inhibition at 5 and 15 μM, flow cytometry MFI; read-out: Binding affinity with HLA-C0304
Protocol: Then, competitive peptide binding assays were performed.
Peptide text beside a SMILES is read from it.
In this section we review reported IC50 values for a set of molecules.

Examples from the recorded data:
CC[C@H](C)[C@H](NC(=O)[C@H](C)NC(=O)[C@H](C)NC(=O)[C@H](CC(N)=O)NC(=O)CNC(=O)[C@H](CC(=O)O)NC(=O)[C@H](CCC(N)=O)NC(=O)[C@H](C)NC(=O)[C@@H](N)Cc1ccccc1)C(=O)O [Epitope M22] (H-FAQDGNAAI-OH; N-terminus and C-terminus assumed) :: 5 to 15 µM
CC[C@H](C)[C@H](NC(=O)[C@H](CCC(N)=O)NC(=O)[C@H](CC(C)C)NC(=O)[C@H](C)NC(=O)[C@H](C)N)C(=O)N1CCC[C@H]1C(=O)N[C@@H](Cc1ccccc1)C(=O)N[C@@H](C)C(=O)N[C@@H](CCSC)C(=O)O [Epitope M66] (H-AALQIPFAM-OH; N-terminus and C-terminus assumed) :: < 5 µM

Which value of IC50 has been reported for CC(C)C[C@H](NC(=O)[C@H](Cc1ccccc1)NC(=O)[C@@H](NC(=O)[C@@H](N)C(C)C)C(C)C)C(=O)N[C@@H](Cc1c[nH]cn1)C(=O)N[C@H](C(=O)N[C@H](C(=O)N[C@@H](Cc1ccc(O)cc1)C(=O)N[C@H](C(=O)O)C(C)C)[C@@H](C)O)C(C)C [Epitope M131] (H-VVFLHVTYV-OH; N-terminus and C-terminus assumed) in the records?
5 to 15 µM

---

target: HLA-B1302 (Homo sapiens, UniProt P01889, A65T/A93T/A95T/D138N/D201E/D98Y/E176V/E204Q/E69M/E70A/G107R/K202T/L105A/L119W/N104T/N87E/Q94N/R106L/R155S/R169L/R180L/S101N/S121T/S35A/S48T/V127L/V36M/Y140L/Y91S); assay: Competitive peptide binding assay, CIR-B1302; details: HMy2.CIR-B1302 cells, reference Cy5-MMWYWGPSL, class from inhibition at 5 and 15 μM, flow cytometry MFI; read-out: Binding affinity with HLA-B1302
Peptide text beside a SMILES is read from it.
In this section we review reported IC50 values for a set of compounds.

CC(C)C[C@H](N)C(=O)N[C@H](C(=O)N[C@@H](CCCCN)C(=O)N1CCC[C@H]1C(=O)N[C@@H](CO)C(=O)N[C@@H](Cc1ccccc1)C(=O)N[C@@H](Cc1ccc(O)cc1)C(=O)N[C@H](C(=O)N[C@@H](Cc1ccc(O)cc1)C(=O)O)C(C)C)C(C)C [Epitope Y125] (H-LVKPSFYVY-OH; N-terminus and C-terminus assumed) :: > 15 µM

Shifting focus to the compound that follows.
Which value of IC50 has been reported for CC[C@H](C)[C@H](NC(=O)[C@H](C)NC(=O)[C@H](C)NC(=O)[C@H](CC(N)=O)NC(=O)CNC(=O)[C@H](CC(=O)O)NC(=O)[C@H](CCC(N)=O)NC(=O)[C@H](C)NC(=O)[C@@H](N)Cc1ccccc1)C(=O)O [Epitope Y246] (H-FAQDGNAAI-OH; N-terminus and C-terminus assumed) in the records?
> 15 µM
